# Test system: Enterococcus faecalis
# EXPERIMENT: Minimum inhibitory concentration against Enterococcus faecalis (GC 2691) was determined
# Type: functional
Item-by-item account of MIC

- COMPOUND_SMILES: "COc1ccc2cc(CO[C@@H]3[C@@H](O[C@H]4[C@H](O)[C@H](O)[C@@H](Oc5ccc(C[C@H]6NC(=O)[C@H]([C@@H](C)c7ccccc7)NC(=O)CNC(=O)[C@H](CO)NC(=O)[C@@H]([C@@H](O)[C@@H]7CN=C(N)N7[C@H]7O[C@H](O)[C@@H](O)[C@H](O)[C@@H]7O)NC(=O)[C@H]([C@@H](O)[C@@H]7CN=C(N)N7)NC6=O)cc5)O[C@@H]4CO)O[C@H](CO)[C@@H](O)[C@@H]3O)ccc2c1"
  TESTED_TARGET: "Enterococcus faecalis"
  RESULT_UNITS: "mg/L"
  VALUE_RELATION_SIGN: ">"
  MIC: 128
- COMPOUND_SMILES: "CN[C@H](CC(C)C)C(=O)N[C@H]1C(=O)N[C@@H](CC(N)=O)C(=O)N[C@H]2C(=O)N[C@H]3C(=O)N[C@H](C(=O)N[C@H](C(=O)O)c4cc(O)cc(O)c4-c4cc3ccc4O)[C@H](O)c3ccc(c(Cl)c3)Oc3cc2cc(c3O[C@@H]2O[C@H](CO)[C@@H](O)[C@H](O)[C@H]2O[C@H]2C[C@](C)(N)[C@H](O)[C@H](C)O2)Oc2ccc(cc2Cl)[C@H]1O"
  TESTED_TARGET: "Enterococcus faecalis"
  RESULT_UNITS: "mg/L"
  VALUE_RELATION_SIGN: "="
  MIC: 1
